FYI, the data here is from patent US20250250357A1.

Some binders, each annotated with its measured OD450.
# system.tested: T1, human MSLN-R2-his protein (human, UniProt Q13421 391-486)
# T1 construct: it is put last here; also called human MSLN-R2 protein; hMSLN-R2-his; not shown: His tag
# assay.name: ELISA on coated antigen, antibody 0.0002 nM
Report as a plain number; the unit OD is understood.

Assign OD450 to the following record: S009-F7.48.1 (antibody, human IgG1, kappa, V domains shown, Human-murine chimeric antibody, human IgG1 heavy and kappa light constant regions) VH: QVQLQQPGTELVKPGASVKLSCKASGYTFTSYWMHWVKQRPGQGLEWIGNINPSNGGTNNNENFKSKATLTVDTSSSTAYMQLSSLTSEDSAVYYCVRNGYHGYWYFDVWGTGTTVTVSS VL: DIVMTQSQKFMSTSVGDRVSVTCKASQNVGTNVAWYQQQPGQSPKALIYSASYRYSGVPDRFTGSVSGTDFTLTISNVQSEDLAEYFCQQYNSYPLTFGGGTKLEIKR
0.05

Assign OD450 to the following record: S009-F7.53.2 (antibody, human IgG1, kappa, V domains shown, Human-murine chimeric antibody, human IgG1 heavy and kappa light constant regions) VH: EVQLQQSGPELVKPGASVKIPCKTSGYTFTDYNMDWVKQSHGKSLEWIGDINPNTDGAIYNQKFQNKATLTVDKSSSTAYMELRSLTSEDTAVYYCTRRKLGRKFFDYWGQGTTLTVSS VL: QIVLTQSPAIMSASPGEQVTMTCSASSSVGYMNWYQQKPGSSPRLLIYDTSNLASGVPVHFSGSGSGTSYSLTISRMEAAFAATYYCQQWYVYPYTFGGGTKLEIKR
0.05

Assign OD450 to the following record: S009-F7.2.3 (antibody, human IgG1, kappa, V domains shown, Human-murine chimeric antibody, human IgG1 heavy and kappa light constant regions) VH: ELQLVESGGDLVKPGGSLKLSCAASGFTFSSNGMSWLRQTPDKRLEWVATISSGGRYTYYPDSVKGRFTISRDNAKNTLYLQMSSLKSEDTAMYYCARRGIYDYFDCWGQGTTLTVSS VL: DIQMTQSPASLSISVGETVTITCRASENIHSSLAWYQQKQGKSPQLLVYAATNLADGVPSRFSGSGSGSQYSLKINSLQSEDFGTYYCQHFWGTPWTFGGGTKLDIKR
0.14
